The following are reported pKi results, target or system AChE (Homo sapiens).
# pKi: negative log10 of molar concentration; output just the value

compound="Br.CC(=O)c1ccc(-n2cc[n+](Cc3ccccn3)c2)cc1.[Br-] [Compound 1d]" measured_on="AChE (Homo sapiens)" measured_result=6.10

Now look at this entry.
With AChE (Homo sapiens) as the test system, provide measured pKi for this compound: CC(=O)c1ccc(-n2cc[n+](CCN3CCCCC3)c2)cc1.Cl.[Cl-] [Compound 1b] 5.77

* * *

The following are reported MIC results, target or system E. faecalis.
The response must be a number in µg/mL with no trailing unit.

compound_string=CC(=O)c1ccc(-n2cc[n+](CCN3CCCC3)c2)cc1.Cl.[Cl-] measured_result=50
compound_string=Cl.O=Cc1ccc(-n2cc[n+](CCN3CCCCC3)c2)cc1.[Cl-] measured_result=50
compound_string=Cl.O=Cc1ccc(-n2cc[n+](CCN3CCOCC3)c2)cc1.[Cl-] measured_result=250

With E. faecalis as the test system, provide measured MIC for this compound: Cl.O=Cc1ccc(-n2cc[n+](CCN3CCCC3)c2)cc1.[Cl-] 50

With E. faecalis as the test system, provide measured MIC for this compound: Br.O=Cc1ccc(-n2cc[n+](Cc3ccccn3)c2)cc1.[Br-] 100

With E. faecalis as the test system, provide measured MIC for this compound: Br.CC(=O)c1ccc(-n2cc[n+](Cc3ccccn3)c2)cc1.[Br-] 10

With E. faecalis as the test system, provide measured MIC for this compound: CC(=O)c1ccc(-n2cc[n+](CCN3CCOCC3)c2)cc1.Cl.[Cl-] 50

With E. faecalis as the test system, provide measured MIC for this compound: CC(=O)c1ccc(-n2cc[n+](CCN3CCCCC3)c2)cc1.Cl.[Cl-] 50
